assayNotes: Pharmacokinetics (biodistribution 1-24 h) in non-tumor bearing mice
Type: in vivo
conditionSummary: female, BALB/c, mouse, femur, 200 umol, total radioactivity; 24 hours after injection, ^64Cu; read-out: Biodistribution Femur

compound: C[C@@H](O)[C@@H]1NC(=O)[C@H](CCCCN)NC(=O)[C@@H](Cc2c[nH]c3ccccc23)NC(=O)[C@H](Cc2ccc(O)cc2)NC(=O)[C@@H](NC(=O)[C@@H](Cc2ccccc2)NC(=O)CCC(C(=O)O)N2CCN(CC(=O)O)CCN(CC(=O)O)CC2)CSSC[C@@H](C(=O)N[C@H](CO)[C@@H](C)O)NC1=O (single isomer, unassigned) [[^61/^64Cu]Cu-NODAGA-TOC, metal not drawn]
tissue uptake at 24 h (%ID/g): 0.06
